Molecular target: T1, GIP Receptor (Homo sapiens, UniProt P48546)
T1 construct: host or cells: HEK293T
T1 sequence (P48546 22-466): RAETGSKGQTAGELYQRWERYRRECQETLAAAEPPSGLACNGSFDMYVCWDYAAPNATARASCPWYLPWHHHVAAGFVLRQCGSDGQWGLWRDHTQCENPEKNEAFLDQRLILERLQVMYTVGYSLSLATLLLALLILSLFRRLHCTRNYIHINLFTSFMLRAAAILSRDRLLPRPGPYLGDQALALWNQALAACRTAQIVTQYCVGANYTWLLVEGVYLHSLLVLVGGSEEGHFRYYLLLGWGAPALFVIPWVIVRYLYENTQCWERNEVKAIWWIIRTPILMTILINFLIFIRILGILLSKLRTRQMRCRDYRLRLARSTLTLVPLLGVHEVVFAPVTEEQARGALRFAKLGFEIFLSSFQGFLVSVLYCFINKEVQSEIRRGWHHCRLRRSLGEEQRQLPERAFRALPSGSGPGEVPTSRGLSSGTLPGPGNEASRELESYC
Experiment: GIP receptor-mediated bioluminescence in HEK293T cells with chimeric promiscuous G protein (FIG. 5, Table II)
Assay type: cell-based
Conditions: signal induced by maximal GIP (1 μM) divided by signal induced by buffer alone
Description: However, coexpression of GIP receptor with a chimeric G protein containing sequences from Gαs and Gαq enable the GIP receptor to stimulate calcium flux. […] Signal to background ratio was calculated as the signal induced by maximal GIP (1 μM) divided by the signal induced by buffer alone. The EC50 value for calcium was determined as described above for FIG. 2 for mitochondrially targeted photoproteins transfected into HEK293T cells in the absence of a cotransfected GPCR or G protein. […]
OBSERVATION TYPE: Signal: background with GIP

Mt-clytin K168G: Mitochondrial K168G modified Clytin, SEQ ID NO:16 (protein) MSVLTPLLLRGLTGSARRLPVPRAKIHSLPPEGKLRPNFDNPKWVNRHKFMFNFLDINGDGKITLDEIVSKASDDICAKLGATPEQTKRHQDAVEAFFKKIGMDYGKEVEFPAFVDGWKELANYDLKLWSQNKKSLIRDWGEAVFDIFDKDGSGSISLDEWKAYGRISGICSSDEDAEKTFKHCDLDNSGGLDVDEMTRQHLGFWYTLDPNADGLYGNFVP ... 146.8
